pIC50: −log10 of the molar value.
# literature pull: UniProt:P42338 pIC50

Ask | Give the measured pIC50 of C[C@H](Nc1ncnc2cccnc12)c1cc2cccc(Cl)c2c(C(=O)NC2CCOCC2)n1 .
Reply | < 5.00

Ask | Give the measured pIC50 of CC(C)Oc1ccc(-c2cnc(N)c(C(=O)N[C@@H](C)c3cc4cccc(Cl)c4c(=O)n3-c3ccccc3)n2)cn1 .
Reply | < 5.00

Ask | Give the measured pIC50 of [2H]C1([2H])OC([2H])([2H])C([2H])([2H])N(C(=O)c2cnc3ccc(-c4ccc5oc(N)nc5c4)cn23)C1([2H])[2H] .
Reply | < 5.00

====

# literature pull: PIK3CB (Human) IC50

Solved cases (10 shown):
Molecule Smiles	Observed Value
C[C@H](Nc1nc(N)ncc1C#N)c1cc2cccc(-c3cccc(Cl)c3)c2c(=O)n1-c1ccccc1	1 to 10 µM
CCN(CC)CC(=O)N1CCN(c2cnc3ccc(-c4ccc5oc(N)nc5c4)cc3n2)CC1	< 10 µM
COc1ccc(-c2cccc3cc([C@H](C)Nc4nc(N)ncc4C#N)n(-c4ccccc4)c(=O)c23)cc1	1 to 10 µM
Cc1nccn1-c1cnc2ccc(-c3ccc4oc(N)nc4c3)cc2n1	< 1 µM
C[C@@H]1CN(c2cnc3ccc(-c4ccc5oc(N)nc5c4)nc3n2)CCN1	< 0.1 µM
Nc1nc2cc(-c3ccc4ncc(C(=O)NCCOCC(=O)O)n4c3)ccc2o1	< 1 µM
CC1(C)CN(C2CN(c3cnc4ccc(-c5ccc6oc(N)nc6c5)nc4n3)C2)CCO1	> 10 µM
C[C@H](Nc1cc(Cl)nn2ccnc12)c1cc2ccccc2c(CCN2CCOCC2)n1	> 10 µM
C[C@H](NC(=O)c1nccnc1N)c1cc2cccc(Cl)c2c(=O)n1-c1ccccc1	0.1 to 1 µM
CN(C)C[C@@H]1CCN(C(=O)Nc2nc3c(s2)-c2cc(C(C)(C)C)ncc2OC3)[C@@H]1C(N)=O	6.17 µM

Ask | Give the measured IC50 of CC(C)Nc1cccc2cc([C@H](C)NC(=O)c3c(N)nn4cccnc34)n(-c3ccccc3)c(=O)c12 .
Reply | > 10 µM

Ask | Give the measured IC50 of CCOC(=O)N1CC=C(c2cnc3ccc(-c4ccc5oc(N)nc5c4)nc3n2)CC1 .
Reply | < 10 µM

Ask | Give the measured IC50 of C[C@H](Nc1ncnc2scnc12)c1cc2cccc(-c3cnc(N)nc3)c2c(=O)n1-c1ccccc1 .
Reply | 1 to 10 µM

Ask | Give the measured IC50 of C[C@H](Nc1ccc2c(c1)OCCn1c-2nc(N2C(=O)OC[C@H]2C(F)F)c1F)C(N)=O .
Reply | > 10 µM

Ask | Give the measured IC50 of Nc1nsc2cc(-c3ccc4nccc(-c5ccncc5)c4c3)ccc12 .
Reply | < 1 µM

====

# literature pull: PIK3CB (Human) (UniProt P42338) pIC50
pIC50: −log10 of the molar value.

Molecule Smiles	pIC50
Nc1cc(-c2cc(-c3nnc[nH]3)c3nc(C4COC4)n(-c4ccnc5c(Cl)ccc(F)c45)c3c2)ccn1	7.46
C[C@H](Nc1nc(N)ncc1C#N)c1cc2cccc(-c3ccc(=O)n(CC4CC4)c3)c2c(=O)n1-c1ccccc1	5.00 to 6.00

Query compound follows.
Ask | Give the measured pIC50 of Nc1nc2cc(-c3ccc4ncn(CCN5CCCC5)c(=O)c4c3)ccc2o1 .
Reply | > 5.00
